Overview of recorded Average fluorescence intensity for various binders
Measured target: Human CLDN18.1 (human) (UniProt P56856)
Sequence (P56856 whole entry): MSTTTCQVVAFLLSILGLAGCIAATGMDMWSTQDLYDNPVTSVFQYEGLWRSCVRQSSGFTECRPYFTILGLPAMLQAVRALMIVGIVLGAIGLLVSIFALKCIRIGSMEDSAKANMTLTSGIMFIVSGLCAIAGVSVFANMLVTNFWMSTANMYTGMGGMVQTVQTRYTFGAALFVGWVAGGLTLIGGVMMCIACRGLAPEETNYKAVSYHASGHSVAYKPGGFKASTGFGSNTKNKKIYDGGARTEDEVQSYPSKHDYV
Experiment: FACS, hybridoma culture supernatant on CHO-human CLDN18.1 cells (permeable membrane treatment)
Respond numerically, and do not add a unit to the figure.

Entry 5E6 (hybridoma clone, murine CLDN18.2 antigen-binding protein) (antibody, V domains shown) VH: EVQLQQSGPELVKPGASVKMSCKASGYTFTNYVMNWVKQKPGQGLEWIGYINPYNDGTKYNERFKGKATLTSDKSSSTAFMEVSSLTSEDSAVYYCARLYRGNAMDYWGQGTSVTVSS VL: DIVMTQSPSSLTVTVREKVTLSCKSSQSLLNSGNQKNYLTWYQQKPGQPPKLLIYWASTRESGVPDRFTGSGSGTDFTLTISSVQAEDLAVYYCQNVYIYPFTFGAGTKLELKR : reported Average fluorescence intensity = ? 5370

Entry 7E3 (hybridoma clone, murine CLDN18.2 antigen-binding protein) (antibody, V domains shown) VH: EVQLQQSGPELVKPGASVKMSCKASGYTFTNYIIHWVKQKPGQGLEWIGYINPYTDGPKYNEKFKGRATLTSDKSSSTAYMEFSSLTSEDSAVYYCARLNRGNAMDYWGQGTSVTVSS VL: DIVMTQSPSSLTVTVREKVTLSCKSSQSLLNSGNQKNYLTWYQQKPGQPPKLLIYWASTRESGVPDRFTGSGSGTDFTLTISSVQAEDLAVYYCQNVYIYPFTFGAGTKLELKR : reported Average fluorescence intensity = ? 3380

Entry 14E12 (hybridoma clone, murine CLDN18.2 antigen-binding protein) (antibody, V domains shown) VH: EVQLQESGPELVKPGASVKMSCKASGYTFTNYIIHWVKQKPGQGLEWIGYINPYTDGPKYNEKFKGRATLTSDKSSSTAYMEFSSLTSEDSAVYYCARLNRGNAMDYWGQGTSVTVSS VL: DIVMTQSPSSLSVSAGEKVTMSCKSSQSLLNNGNQKNYLAWYQQKPGQPPKLLIYGASTRESGVPDRFTGSGSGTDFALTISSVQAEDLAVYYCQNDLYYPFTFGSGTKLDIKR : reported Average fluorescence intensity = ? 1860

Entry 17B10 (hybridoma clone, murine CLDN18.2 antigen-binding protein) (antibody, V domains shown) VH: EVQLQESGPELVKPGASVKMSCKASGYTFTNYIIHWVKQKPGQGLEWIGYINPYTDGPKYNEKFKGRATLTSDKSSSTAYMEFSSLTSEDSAVYYCARLNRGNAMDYWGQGTSVTVSS VL: DIVMTQSPSSLTVTAGEKVTMNCKSSQSLLNSGNQKNYLTWYQQKPGQPPKLLIYWASTRESGVPDRFTGSGSGTDFTLTISSVQAEDLAVYYCQNDYSFPFTFGSGTKLEIKR : reported Average fluorescence intensity = ? 1680
